The values you see were collected from PubChem BioAssay.

Let's look at some compounds and their measured composite z-score.
- MEASUREMENT_PROTOCOL: binders of probe aFSTL3 on microarray, primary screen, stem cell growth factor project, biochemical, small-molecule microarray, fluorescence 635/667 (AID 1064);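 also: measures binding of the biotinylated anti-FSTL3 antibody to printed compounds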
- CONDITION: higher = more signal
QUANTITY_NAME: composite z-score

{"columns": ["COMPOUND", "MEASURED"],
 "data": [
  ["O=C1C2C=CC(C(O)c3ccc([N+](=O)[O-])cc3)N(Nc3ccccc3)C2C(=O)N1c1ccccc1 (stereo unspecified)", -0.228],
  ["COCCOC(=O)N1C(=O)[C@@]2(c3cc(C#CCCO)ccc31)[C@H](c1ccc(O)cc1)N1[C@H](c3ccccc3)[C@H](c3ccccc3)OC(=O)[C@H]1[C@@H]2C(=O)N1CCc2cc(OC)c(OC)cc2C1", 0.0104],
  ["CCC(CC)C(O)C1C=CC2C(=O)N(C)C(=O)C2N1N1CCCCC1 (stereo unspecified)", 0.104],
  ["CN(C)CCCNC(=O)[C@@]1(Cc2ccccc2I)c2ccccc2C(=O)N(Cc2ccccc2)[C@H]1c1ccc(CO)cc1", -0.803],
  ["COC(=O)C1(CC(C)C)C=C2C(=C(C(C)C)C(=O)C2C)CN1 (stereo unspecified)", 0.901],
  ["COc1cc2c(cc1O)C(c1ccc(CN3CCCC3)cc1)N(Cc1cccc(OC(F)(F)F)c1)CC2 (stereo unspecified)", 0.254],
  ["O=C1c2ccccc2[C@@]2(Cc3ccccc3N(Cc3ccccc3)C2=O)[C@H](c2ccc(CO)cc2)N1Cc1ccccc1", 0.55],
  ["COCCOC(=O)N1C(=O)[C@@]2(c3cc(C#CCCO)ccc31)[C@H](c1ccccc1OCCO)N1[C@H](c3ccccc3)[C@H](c3ccccc3)OC(=O)[C@H]1[C@@H]2C(=O)N1CCc2cc(OC)c(OC)cc2C1", 0.071],
  ["CCCCN1CC=CC23O[C@@H]4C=CCOC(=O)[C@@H]4[C@H]2C(=O)N(CCO)[C@@H]3C1=O (stereo partly specified)", 1.37],
  ["C=C(COC)C(=O)CC[C@@H](OC(=O)c1cccnc1)c1cccc(OCCO)c1", 0.0424],
  ["CCCC[C@@H]1C[C@H]1[C@@H](NC(=O)c1ccc(C(F)(F)F)cc1)c1ccc(C(=O)OC)cc1", 1.54],
  ["CCCCC=C[C@@H](NC(=O)c1ccc(C(F)(F)F)cc1)c1ccccc1", 0.385],
  ["CC(C)C[C@@H]1NC(=O)[C@H]2C[C@@H](C(=O)NCCCCCNC(=O)CS)[C@@H](c3ccc(O)cc3)N2C1=O", -0.208],
  ["CC1CC/C=C\\[C@H]2OC34C=CCN(CCN5CCOCC5)C(=O)[C@H]3N(CCCCCCO)C(=O)[C@@H]4C2C(=O)O1 (stereo partly specified)", -0.0847],
  ["CC=CC(O)C1C=CC2C(=O)N(C)C(=O)C2N1NC(=O)OC(C)(C)C (stereo unspecified)", -0.0303],
  ["C#CCN(C/C=C/c1ccccc1)[C@H](CO[Si](C)(C)C(C)(C)C)c1ccccc1", -0.0528]
]}

----------
Let's look at some molecules and their measured z-score.
- MEASUREMENT_PROTOCOL: E. coli acrAB mutant growth effects, primary screen, E. coli filamentation inducers, strain DRC39, OD650, 24 h (AID 1178);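 also: growth measured as culture turbidity by optical density at 650 nm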
- CONDITION: higher = more signal, called active from +8 up or from −8 down

{"columns": ["MOLECULE", "z-score"],
 "data": [
  ["C=CC[C@]1(C(=O)OC)N=C(c2ccc(OCCCO)cc2)O[C@H]1c1ccccc1N=[N+]=[N-]", 0.0005],
  ["CC(C)C[C@@H]1NC(=O)C([C@@H](C)OCc2ccccc2)NC(=O)[C@@]23C(=O)N[C@@H](Cc4ccccc4)C2[C@H](C)[C@@]2(C)O[C@H]2C3/C=C/CC/C=C/CNC1=O (stereo not given in full)", 1.64],
  ["CC1(C)OC[C@@]23C=C(Br)[C@@H](C[C@H]12)[C@@]1(CO1)C3=O", -0.509],
  ["C=CCC(OC(C)=O)[C@@H]1[C@@H](N(Cc2cc3ccccc3o2)C(=O)Cc2ccc(OC)cc2)c2cc(OCCCO)ccc2N1C(=O)Cc1ccc(OC)cc1 (stereo not given in full)", -0.184],
  ["O=C(NCCO)C1=C[C@H](Oc2ccccc2I)[C@@H](O)[C@H](NCc2ccc(F)cc2)C1", -0.802],
  ["COCCOC(=O)N1C(=O)[C@@]2(c3cc(C#CC4(O)CCCCCC4)ccc31)[C@H](C(=O)N1CCc3cc(OC)c(OC)cc3C1)[C@H]1C(=O)O[C@H](c3ccccc3)[C@H](c3ccccc3)N1[C@@H]2c1ccc(O)cc1", -0.282],
  ["COc1ccc([Si](C)(C)[C@@H]2[C@@H](CC(=O)N(CCO)Cc3ccccc3)O[C@]3(C(=O)N(Cc4ccc(N5CCC5=O)cc4)c4ccccc43)[C@H]2C)cc1", 0.505],
  ["COc1ccc(C(O)C2C=CC3C(=O)N(C)C(=O)C3N2Nc2ccc([N+](=O)[O-])cc2[N+](=O)[O-])cc1OCc1ccccc1 (stereo not given)", -0.98],
  ["C=C(CCCC)C(=O)CC[C@H](OC(C)=O)c1ccccc1OCCO", -1.17],
  ["N#Cc1ccc(C(O)C2C=CC3C(=O)N(c4ccccc4)C(=O)C3N2Nc2ccc([N+](=O)[O-])cc2)cc1 (stereo not given)", -1.15],
  ["CC(c1ccccc1)C(O)C1C=CC2C(=O)N(c3ccccc3)C(=O)C2N1Nc1ccc(C#N)cc1 (stereo not given)", 1.07],
  ["C=CC[C@@]12N=C(c3ccc(OCCCO)cc3)O[C@@H]1c1ccccc1N(Cc1ccccc1)C2=O", 1.48],
  ["COc1ccc(C#Cc2ccc3c(c2)[C@]2(C(=O)N3)[C@H](c3ccc(OCCO)cc3)N3[C@H](c4ccccc4)[C@H](c4ccccc4)OC(=O)[C@H]3[C@@H]2C(=O)O)cc1", 1.22],
  ["O=C1C2C=CC(C(O)c3cccs3)N(Nc3ccccc3)C2C(=O)N1c1ccccc1 (stereo not given)", 0.0187],
  ["CCCCC(O)C1C=CC2C(=O)N(C)C(=O)C2N1Nc1ccccc1 (stereo not given)", -0.867]
]}

----------
- System: XIP peptide (Xip251-270)
- MEASUREMENT_PROTOCOL: small-molecule binders of XIP peptide, primary screen, biochemical, small-molecule microarray, fluorescence 635/667 nm, 0.5 µg/mL protein (AID 1183)
- CONDITION: small-molecule microarray binding, fluorescence 635 nm; higher = more signal
Note to self: values exactly at 0.2 are label 1. So composite z-score at or above 0.2 is label 1, below is label 0.

{"columns": ["COMPOUND", "ANSWER_LABEL"],
 "data": [
  ["C=CCC(OC(C)=O)[C@@H]1[C@@H](N(Cc2ccc(-c3cccc(C(F)(F)F)c3)o2)C(=O)Cc2ccc(F)cc2)c2cc(OCCCO)ccc2N1C(=O)c1ccc2ccccc2c1 (some centres undefined)", "label 0"],
  ["CC1CC/C=C\\[C@H]2OC34C=CCN(CCN5CCOCC5)C(=O)[C@H]3N(CCCCCCO)C(=O)[C@@H]4C2C(=O)O1 (some centres undefined)", "label 1"],
  ["CO[C@H]1O[C@H](CO)[C@@H](OC(=O)Nc2ccc(C(F)(F)F)cc2)[C@H](OC(=O)Nc2ccccc2-c2ccccc2)[C@H]1OC(=O)Nc1ccccc1-c1ccccc1", "label 1"],
  ["CCOC(=O)C1=CC[C@@H](c2ccc(F)cc2)N(S(=O)(=O)c2ccc(C)cc2)[C@H]1c1ccc([N+](=O)[O-])cc1", "label 1"],
  ["CCOC(=O)C1=CCC(c2cc3ccccc3[nH]2)N(S(=O)(=O)c2ccccc2[N+](=O)[O-])C1 (centres undefined)", "label 1"],
  ["C=CCC(OC(C)=O)[C@@H]1[C@@H](N(Cc2cc3ccccc3o2)C(=O)Cc2ccc(OC)cc2)c2cc(OCCCO)ccc2N1C(=O)Cc1ccc(OC)cc1 (some centres undefined)", "label 0"],
  ["CC(=O)NCCCC[C@@H]1NC(=O)[C@H]2C[C@@H](C(=O)NCCCCCC[N+](C)(C)C)[C@@H](c3ccc(O)cc3)N2C1=O", "label 1"],
  ["CCCCCCc1nc(-c2ccc(OC)nc2)cc2c1[Si](C(C)C)(C(C)C)OC2", "label 0"],
  ["C=CCC(OC(C)=O)[C@@H]1[C@@H](N(Cc2ccc(-c3cccc(C(F)(F)F)c3)o2)C(=O)Cc2ccc(OC)cc2)c2cc(OCCCO)ccc2N1C(=O)c1ccc2ccccc2n1 (some centres undefined)", "label 0"],
  ["CCOC(=O)C1=CC[C@@H](c2ccccc2Cl)N(S(=O)(=O)c2ccc(C)cc2)[C@H]1c1cccc(OC)c1", "label 1"],
  ["COC(=O)[C@@]1(Cc2ccc(OC)cc2)[C@H]2c3cc(C(=O)N4CCCC4)n(CCc4ccc(OC)c(Br)c4)c3C[C@H]2CN1C(=O)c1ccccc1", "label 0"],
  ["O=C1NC(=O)C2C1C=CC(C(O)c1ccc(F)cc1)N2Nc1ccccn1 (centres undefined)", "label 0"],
  ["C[C@@H](OCc1ccccc1)C1NC(=O)[C@@]23C(=O)N[C@@H](Cc4ccccc4)C2[C@H](C)[C@@]2(C)O[C@H]2C3/C=C/C/C=C\\CNC(=O)[C@H](Cc2ccccc2)NC1=O (some centres undefined)", "label 0"],
  ["C=CC[C@]1(C(=O)OC)N=C(c2ccc(OCCCO)cc2)O[C@H]1c1ccccc1N=[N+]=[N-]", "label 1"]
]}
